# Ki per record follows
Molecular target: UniProt P10415
Sequence (P10415 other isoform, or with tags, fused parts or gaps): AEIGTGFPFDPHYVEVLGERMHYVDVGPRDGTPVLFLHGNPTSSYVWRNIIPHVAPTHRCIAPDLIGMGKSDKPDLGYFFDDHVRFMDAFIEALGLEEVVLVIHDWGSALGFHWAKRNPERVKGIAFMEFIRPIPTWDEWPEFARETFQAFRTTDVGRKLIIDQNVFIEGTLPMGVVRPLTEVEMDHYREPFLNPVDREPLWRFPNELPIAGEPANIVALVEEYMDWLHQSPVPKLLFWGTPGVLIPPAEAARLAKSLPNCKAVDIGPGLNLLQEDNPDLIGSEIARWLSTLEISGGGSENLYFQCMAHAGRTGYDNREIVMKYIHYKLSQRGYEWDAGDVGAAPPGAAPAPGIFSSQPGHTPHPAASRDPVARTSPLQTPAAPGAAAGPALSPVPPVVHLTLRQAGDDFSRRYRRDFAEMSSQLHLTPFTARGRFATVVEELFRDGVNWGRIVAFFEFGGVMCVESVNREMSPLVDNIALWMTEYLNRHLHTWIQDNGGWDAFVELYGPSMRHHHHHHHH
Test: TR-FRET competitive binding assay, BCL2 WT
Details: Ki determined from IC50, read-out: TR_FRET EKI_Bcl2 WT
Output spec: scalar in nM, unitless text.

Field: example entries. Status: answers known.
| compound | value.unit | value.reported |
| --- | --- | --- |
| COc1ncc(N(C(=O)c2cc(-c3cc4c(cc3C(=O)N3Cc5ccccc5C[C@H]3C)CN(C(=O)Cc3ccc(OCCN(C)C)cc3F)CC4)n(C)c2C)c2ccccc2)cc1F | nM | 0.05 |
| Cc1c(N(C(=O)c2cc(-c3cc4c(cc3C(=O)N3Cc5ccccc5C[C@H]3CN3CCCCC3)CN(C(=O)Cc3ccc(OCCN5CCOCC5)cc3F)CC4)n3ccccc23)c2ccc(O)cc2)cc(C#N)n1C | nM | 0.13 |
| Cc1c(N(C(=O)c2cc(-c3cc4c(cc3C(=O)N3Cc5ccccc5C[C@H]3CN3CCCCC3)CN(C(=O)Cc3ccc(OCCC5CCOCC5)cc3F)CC4)n(C)c2C)c2ccc(O)cc2)cc(C#N)n1C | nM | 0.34 |

Prompt: Recorded Ki for COc1ccc(N(C(=O)c2cc(-c3cc4c(cc3C(=O)N3Cc5ccccc5C[C@H]3C)CN(C(=O)Cc3ccc(OCCN5CCOCC5)cc3)CC4)n(C)c2C)c2ccccc2)cc1C#N , please?
Response: 0.11

---

Below, each entry is listed alongside its reported TR_FRET EKI G101V/WT selectivty ratio.
Test system: BCL2 G101V
Assay: TR-FRET competitive binding assay, BCL2 G101V
Parameters: species or system human
Conditions: ratio Ki BCL2 G101V / Ki BCL2 WT
Description: The relative binding potency of each compound was determined in a competitive binding assay using time resolved-fluorescence resonance energy transfer (TR-FRET). […] The degree of binding or corresponding compound inhibition can be quantified by the TR-FRET signal between the terbium donor and fluorescein acceptor. […] TR-FRET measurements were performed on a Biotek Synergy Neo plate reader. […] The TR-FRET signal was calculated as the emission-ratio at 520 nm over 495 nm. […]
Output spec: single numeric token, no unit.

Solved entries:
| compound | value.reported |
| --- | --- |
| Cc1c(N(C(=O)c2cc(-c3cc4c(cc3C(=O)N3Cc5ccccc5C[C@H]3C)CN(C(=O)Cc3cccc(N5CCN6CCOC[C@@H]6C5)c3)CC4)n(C)c2C)c2ccccc2)cc(C#N)n1C [Example 8] | 20.3 |
| Cc1c(N(C(=O)c2cc(-c3cc4c(cc3C(=O)N3Cc5ccccc5C[C@H]3C)CN(C(=O)Cc3ccccc3)CC4)n(C)c2C)c2ccc(O)cc2F)cc(C#N)n1C [Example 13] | 2.0 |
| Cc1c(N(C(=O)c2cc(-c3cc4c(cc3C(=O)N3Cc5ccccc5C[C@H]3C)CN(C(=O)Cc3ccc(OCCN(C)C5CC5)nc3)CC4)n(C)c2C)c2ccc(O)cc2)cc(C#N)n1C [Example 61] | 5.0 |
| Cc1c(N(C(=O)c2cc(-c3cc4c(cc3C(=O)N3Cc5ccccc5C[C@H]3C)CN(Cc3cc5ccccc5cn3)CC4)n(C)c2C)c2ccc(O)cc2)cc(C#N)n1C [Example 58] | 8.1 |
| Cc1c(C(=O)N(c2ccc(O)cc2)c2cnc3c(cnn3C)c2)cc(-c2cc3c(cc2C(=O)N2Cc4ccccc4C[C@H]2C)CN(C(=O)Cc2ccc(OCCN4CCOCC4)cc2)CC3)n1C [Example 62] | 5.5 |

Next item in the queue.
Prompt: Reported TR_FRET EKI G101V/WT selectivty ratio, compound CCN(CC)C[C@@H]1Cc2ccccc2CN1C(=O)c1cc2c(cc1-c1cc(C(=O)N(c3ccc(O)cc3)c3cc(C#N)n(C)c3C)c(C)n1C)CCN(C(=O)Cc1ccc(OCCN3CCOCC3)cc1F)C2 [Example 137] : ____
Response: 4.6
